biological target: SIRT3 (Homo sapiens); test: SIRT3 deacetylation of Trp 5-mer peptide, OAADPr mass spec assay; settings: Trp SIRT3_IC50, Trp 5-mer peptide; class symbols
parameter measured: IC50

Solved cases (4 shown):
{"columns": ["compound", "system", "IC50"],
 "data": [
  ["CC(C)(C)OC(=O)NCCN1CCN(c2ncnc3cc(C(N)=O)oc23)CC1 [Compound 86]", "SIRT3 (Homo sapiens)", "1000 to 10000 nM"],
  ["CN(C)CCC1CCN(c2ncnc3cc(C(N)=O)sc23)CC1 [Compound 46]", "SIRT3 (Homo sapiens)", "< 1000 nM"],
  ["NC(=O)c1cc2ccnc(N3CCC(CCN4CCCC4)CC3)c2s1 [Compound 169]", "SIRT3 (Homo sapiens)", "< 1000 nM"],
  ["CC(C)(C)OC(=O)NCCC1CCN(c2ncnc3cc(C(=O)O)sc23)CC1 [Compound 189]", "SIRT3 (Homo sapiens)", "> 10000 nM"]
]}

# ---- query compound ----
Given the entry CC(C)(C)OC(=O)NCCN1CCN(c2ncnc3cc(C(N)=O)sc23)CC1 [Compound 15b] , what IC50 was observed with SIRT3 (Homo sapiens)?
< 1000 nM

====

target: UniProtKB Q8IXJ6; assay: SIRT2 deacetylation of Trp 5-mer peptide, OAADPr mass spec assay; format: biochemical; design: His-SIRT2(1-389); settings: Trp SIRT2_IC50, Trp 5-mer peptide; class symbols
pIC50: −log10 of the molar value.
Known pIC50 of a selection of compounds

{"columns": ["compound", "pIC50"],
 "data": [
  ["CC(=S)NCCC1CCN(c2ncnc3cc(C(N)=O)sc23)CC1", "> 6.00"],
  ["NCCC1CCN(c2ncnc3cc(C(N)=O)sc23)CC1 [Compound 16a]", "> 6.00"]
]}

For the compound shown here, CCNc1ncnc2cc(C(N)=O)sc12 , give the reported pIC50.
< 5.00

For the compound shown here, NC(=O)c1cc2ncnc(N3CCCCC3)c2s1 , give the reported pIC50.
5.00 to 6.00

For the compound shown here, CC(C)(C)OC(=O)c1ccc(C(=O)NCCC2CCN(c3ncnc4cc(C(N)=O)sc34)CC2)s1 , give the reported pIC50.
> 6.00

====

biological target: UniProt:Q9NTG7; experiment: SIRT3 deacetylation of Trp 5-mer peptide, OAADPr mass spec assay; conditions: Trp SIRT3_IC50, Trp 5-mer peptide; class symbols
parameter measured: IC50

{"columns": ["compound", "system", "result"],
 "data": [
  ["NC(=O)c1cc2ncnc(Cl)c2s1", "UniProt:Q9NTG7", "> 10000 nM"],
  ["CNCC1CCN(c2ncnc3cc(C(N)=O)sc23)CC1", "UniProt:Q9NTG7", "1000 to 10000 nM"],
  ["NC(=O)c1cc2ncnc(N3CCC(CCN4CCCC4)CC3)c2o1", "UniProt:Q9NTG7", "< 1000 nM"]
]}

Given the entry CCNC(=O)c1ccc(C(=O)NCCC2CCN(c3ncnc4ccsc34)CC2)s1 , what IC50 was observed with UniProt:Q9NTG7?
> 10000 nM

Given the entry NCCCC1CCN(c2ncnc3cc(C(N)=O)sc23)CC1 [Compound 77, 2,2,2-trifluoroacetate] , what IC50 was observed with UniProt:Q9NTG7?
< 1000 nM

Given the entry NC(=O)c1cc2ncnc(N3CCC(C(=O)N4CCCC4)CC3)c2s1 , what IC50 was observed with UniProt:Q9NTG7?
1000 to 10000 nM

====

biological target: SIRT3 (Homo sapiens, UniProt Q9NTG7); assay: SIRT3 deacetylation of Trp 5-mer peptide, OAADPr mass spec assay; settings: Trp SIRT3_IC50, Trp 5-mer peptide; class symbols
Sequence (Q9NTG7 102-399): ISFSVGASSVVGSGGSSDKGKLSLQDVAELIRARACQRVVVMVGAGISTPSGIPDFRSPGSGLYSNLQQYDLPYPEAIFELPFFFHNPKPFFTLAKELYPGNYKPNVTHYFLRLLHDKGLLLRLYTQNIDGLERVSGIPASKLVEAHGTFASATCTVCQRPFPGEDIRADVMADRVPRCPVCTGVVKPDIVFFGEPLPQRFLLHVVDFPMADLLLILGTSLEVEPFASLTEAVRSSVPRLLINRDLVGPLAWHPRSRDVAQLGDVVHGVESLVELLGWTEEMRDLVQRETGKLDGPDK
Known IC50 of a selection of compounds

{"columns": ["compound", "parameter measured", "result"],
 "data": [
  ["Cc1nc(N2CCC(CCO)CC2)c2sc(C(N)=O)cc2n1 [Compound 151]", "IC50", "1 to 10 µM"],
  ["NCCNC(=O)c1cccc(C(=O)NCCN2CCN(c3ncnc4cc(C(N)=O)sc34)CC2)c1 [Compound 127]", "IC50", "< 1 µM"]
]}

# ---- query compound ----
For the compound shown here, CC(C)(C)C(=O)NCCN1CCN(c2nccc3cc(C(N)=O)sc23)CC1 [Compound 179] , give the reported IC50.
> 10 µM

====

molecular target: SIRT1 (Homo sapiens, UniProt Q96EB6); experiment: SIRT1 deacetylation of Trp 5-mer peptide, OAADPr mass spec assay; details: read-out: IC50 (μM) SIRT1; Trp 5-mer peptide and NAD at KM; mean of at least three determinations
Sequence (Q96EB6 whole entry): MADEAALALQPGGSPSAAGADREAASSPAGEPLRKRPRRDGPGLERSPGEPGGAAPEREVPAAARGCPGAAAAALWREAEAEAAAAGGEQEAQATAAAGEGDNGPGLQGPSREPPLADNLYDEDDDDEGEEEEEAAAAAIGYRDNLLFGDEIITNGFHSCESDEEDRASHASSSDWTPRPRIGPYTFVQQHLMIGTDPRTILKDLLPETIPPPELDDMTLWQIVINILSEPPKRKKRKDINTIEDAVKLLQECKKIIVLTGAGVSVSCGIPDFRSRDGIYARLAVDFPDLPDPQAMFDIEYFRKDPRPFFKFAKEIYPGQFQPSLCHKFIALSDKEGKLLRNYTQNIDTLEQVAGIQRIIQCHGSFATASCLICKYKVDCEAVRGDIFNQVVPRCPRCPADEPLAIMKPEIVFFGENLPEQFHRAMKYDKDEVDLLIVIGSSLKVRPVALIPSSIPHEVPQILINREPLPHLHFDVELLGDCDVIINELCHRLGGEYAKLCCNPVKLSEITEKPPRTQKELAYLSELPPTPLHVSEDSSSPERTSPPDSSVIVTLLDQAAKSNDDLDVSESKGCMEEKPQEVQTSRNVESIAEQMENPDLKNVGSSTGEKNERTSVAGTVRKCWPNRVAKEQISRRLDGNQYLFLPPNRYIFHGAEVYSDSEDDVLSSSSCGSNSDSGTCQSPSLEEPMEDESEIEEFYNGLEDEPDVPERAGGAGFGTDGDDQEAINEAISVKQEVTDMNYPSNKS
parameter measured: IC50 (µM)
// note: answer is a bare numeric in µM

Solved cases (8 shown):
{"columns": ["molecule", "numeric value"],
 "data": [
  ["CC(C)(C)C(=O)NCCN1CCN(c2ncnc3cc(C(N)=O)sc23)CC1", 0.12],
  ["CC(C)(C)C(=O)NCC1CCN(c2ncnc3cc(C(N)=O)sc23)CC1", 4.3],
  ["CS(=O)(=O)NCCN1CCN(c2ncnc3cc(C(N)=O)sc23)CC1 [Compound 32, 2,2,2-trifluoroacetate]", 0.38],
  ["CC(C)(C)C(=O)NCCC1CCN(c2ncnc3cc(C(N)=O)sc23)CC1", 0.015],
  ["CC(C)(C)C(=O)NCCC1CCN(c2nccc3cc(C(N)=O)sc23)CC1", 0.49],
  ["CC(=S)NCCN1CCN(c2ncnc3cc(C(N)=O)sc23)CC1", 0.49],
  ["NC(=O)c1cc2ncnc(N3CCC(CCN4CCCC4)CC3)c2s1", 0.11],
  ["CC(C)(C)C(=O)NCCC1CCN(c2ncnc3cc(C(N)=O)oc23)CC1", 0.47]
]}

For the molecule shown here, NC(=O)c1cc2ncnc(N3CCC(CN4CCCC4)CC3)c2s1 , give the reported IC50.
0.73

====

target: SIRT3 (Homo sapiens); assay: SIRT3 deacetylation of Trp 5-mer peptide, OAADPr mass spec assay; conditions: Trp SIRT3_IC50, Trp 5-mer peptide; class symbols
parameter measured: IC50

Given the entry NC(=O)c1cc2ncnc(N3CCN(CCN4CCCC4)CC3)c2o1 [Compound 92] , what IC50 was observed with SIRT3 (Homo sapiens)?
< 1000 nM

Given the entry CCNC(=O)c1cccc(C(=O)NCCC2CCN(c3ncnc4cc(C(N)=O)sc34)CC2)c1 [Compound 11a] , what IC50 was observed with SIRT3 (Homo sapiens)?
< 1000 nM

Given the entry CC1(C)COC(C2CCN(c3ncnc4cc(C(N)=O)sc34)CC2)OC1 [Compound 78] , what IC50 was observed with SIRT3 (Homo sapiens)?
1000 to 10000 nM

Given the entry NC(=O)c1cc2ncnc(N3CCC(CCn4ccnc4)CC3)c2s1 [Compound 52] , what IC50 was observed with SIRT3 (Homo sapiens)?
< 1000 nM

Given the entry Cc1nc(N2CCC(CCN)CC2)c2sc(C(N)=O)cc2n1 [Compound 152] , what IC50 was observed with SIRT3 (Homo sapiens)?
1000 to 10000 nM

====

Known IC50 of a selection of compounds
biological target: SIRT2 (Homo sapiens); experiment: SIRT2 deacetylation of Trp 5-mer peptide, OAADPr mass spec assay; type: biochemical; parameters: His-SIRT2(1-389); settings: Trp 5-mer peptide and NAD at KM; mean of at least three determinations; read-out: IC50 (μM) SIRT2
Sequence (Q8IXJ6 whole entry): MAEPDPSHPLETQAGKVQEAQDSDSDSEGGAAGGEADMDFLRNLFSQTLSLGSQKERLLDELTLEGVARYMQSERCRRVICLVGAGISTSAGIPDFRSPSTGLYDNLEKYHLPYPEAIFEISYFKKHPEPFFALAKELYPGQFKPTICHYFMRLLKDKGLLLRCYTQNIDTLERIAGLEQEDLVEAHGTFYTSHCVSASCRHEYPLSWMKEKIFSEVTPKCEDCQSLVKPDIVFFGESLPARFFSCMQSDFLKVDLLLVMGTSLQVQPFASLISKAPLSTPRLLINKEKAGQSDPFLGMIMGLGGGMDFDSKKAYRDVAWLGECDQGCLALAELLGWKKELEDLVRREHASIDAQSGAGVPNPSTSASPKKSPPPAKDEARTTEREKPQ
// note: answer is a bare numeric in µM

{"columns": ["compound", "IC50, µM"],
 "data": [
  ["CC(=O)NCCN1CCN(c2ncnc3cc(C(N)=O)sc23)CC1", 0.17],
  ["Cc1c(C(N)=O)sc2c(N3CCC(CCNC(=O)C(C)(C)C)CC3)ncnc12", 0.13],
  ["CCNC(=O)c1cccc(C(=O)NCCC2CCN(c3ncnc4cc(C(N)=O)sc34)CC2)c1 [Compound 11a]", 0.005]
]}

For the compound shown here, CS(=O)(=O)NCCC1CCN(c2ncnc3cc(C(N)=O)sc23)CC1 , give the reported IC50.
0.001

For the compound shown here, NCCC1CCN(c2ncnc3cc(C(N)=O)sc23)CC1 [Compound 16a] , give the reported IC50.
0.11

For the compound shown here, CC(C)(C)C(=O)NCCCC1CCN(c2ncnc3cc(C(N)=O)sc23)CC1 , give the reported IC50.
0.016

For the compound shown here, CC(=S)NCCC1CCN(c2ncnc3cc(C(N)=O)sc23)CC1 , give the reported IC50.
0.03

For the compound shown here, CC(=O)NCC1CCN(c2ncnc3cc(C(N)=O)sc23)CC1 , give the reported IC50.
2.8

For the compound shown here, CCNC(=O)c1cccc(C(=O)NCCN2CCN(c3ncnc4cc(C(N)=O)sc34)CC2)c1 [Compound 11b] , give the reported IC50.
0.01

For the compound shown here, CC(C)(C)C(=O)NCCN1CCN(c2ncnc3cc(C(N)=O)sc23)CC1 , give the reported IC50.
0.017

For the compound shown here, CC(C)(C)C(=O)NCCC1CCN(c2ncnc3cc(C(N)=O)oc23)CC1 , give the reported IC50.
0.15

For the compound shown here, CNC(=O)c1cc2ncnc(N3CCC(CCNC(=O)C(C)(C)C)CC3)c2s1 , give the reported IC50.
10

For the compound shown here, CS(=O)(=O)NCCN1CCN(c2ncnc3cc(C(N)=O)sc23)CC1 [Compound 32, 2,2,2-trifluoroacetate] , give the reported IC50.
0.053

For the compound shown here, CC(C)(C)C(=O)NCCC1CCN(c2ncnc3cc(C(N)=O)sc23)CC1 , give the reported IC50.
0.01

For the compound shown here, CC(C)(C)OC(=O)NCCC1CCN(c2ncnc3cc(C(N)=O)sc23)CC1 [Compound 15a] , give the reported IC50.
0.005

For the compound shown here, NC(=O)c1cc2ncnc(N3CCC(CN4CCCC4)CC3)c2s1 , give the reported IC50.
0.22
